The following are reported pIC50 results, target or system Matrilysin (Homo sapiens, UniProt P09237).
pIC50: −log10 of the molar value.
assay.metric: pIC50

{"molecule": "COc1ccc(S(=O)(=O)N2CCN(C(=O)c3c(-c4ccccc4)noc3C)CC2C(=O)NO)cc1 (centres undefined)", "target.system": "Matrilysin (Homo sapiens, UniProt P09237)", "assay.metric": "pIC50", "numeric.value": 4.66}
{"molecule": "CCOCCCOC(=O)N1CCN(S(=O)(=O)c2ccc(OC)cc2)C(C(=O)NO)C1 (centres undefined)", "target.system": "Matrilysin (Homo sapiens, UniProt P09237)", "assay.metric": "pIC50", "numeric.value": 6.32}
{"molecule": "CCCCCCN(C)C(=O)N1CCN(S(=O)(=O)c2ccc(Br)cc2)C(C(=O)NO)C1 (centres undefined)", "target.system": "Matrilysin (Homo sapiens, UniProt P09237)", "assay.metric": "pIC50", "numeric.value": 5.92}
{"molecule": "COc1ccc(S(=O)(=O)N2CCN(C(=O)OCc3cccnc3)CC2C(=O)NO)cc1 (centres undefined)", "target.system": "Matrilysin (Homo sapiens, UniProt P09237)", "assay.metric": "pIC50", "numeric.value": 6.30}
{"molecule": "COc1ccc(S(=O)(=O)N2CCN(C(=O)COc3ccccc3)CC2C(=O)NO)cc1 (centres undefined)", "target.system": "Matrilysin (Homo sapiens, UniProt P09237)", "assay.metric": "pIC50", "numeric.value": 6.04}
{"molecule": "COc1ccc(S(=O)(=O)N2CCN(C(=O)NCCc3ccccc3)CC2C(=O)NO)cc1 (centres undefined)", "target.system": "Matrilysin (Homo sapiens, UniProt P09237)", "assay.metric": "pIC50", "numeric.value": 6.08}
{"molecule": "CCCCCCN1CCN(S(=O)(=O)c2ccc(OC)cc2)C(C(=O)NO)C1 (centres undefined)", "target.system": "Matrilysin (Homo sapiens, UniProt P09237)", "assay.metric": "pIC50", "numeric.value": 4.80}
{"molecule": "COc1ccc(S(=O)(=O)N2CCN(C(=O)c3cccnc3)CC2C(=O)NO)cc1 (centres undefined)", "target.system": "Matrilysin (Homo sapiens, UniProt P09237)", "assay.metric": "pIC50", "numeric.value": 4.56}
{"molecule": "COCCN(CCOC)C(=O)N1CCN(S(=O)(=O)c2ccc(Br)cc2)C(C(=O)NO)C1 (centres undefined)", "target.system": "Matrilysin (Homo sapiens, UniProt P09237)", "assay.metric": "pIC50", "numeric.value": 5.95}

---

molecular target: Matrilysin (Homo sapiens)
Sequence (P09237 whole entry): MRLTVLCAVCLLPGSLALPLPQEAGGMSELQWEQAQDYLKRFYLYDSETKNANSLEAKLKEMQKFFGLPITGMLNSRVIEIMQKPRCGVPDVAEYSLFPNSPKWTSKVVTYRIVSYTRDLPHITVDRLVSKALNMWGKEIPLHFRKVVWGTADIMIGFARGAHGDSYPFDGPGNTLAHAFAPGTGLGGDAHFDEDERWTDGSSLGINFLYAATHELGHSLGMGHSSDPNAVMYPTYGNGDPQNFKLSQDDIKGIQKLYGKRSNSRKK
# label = rule met if IC50 < 1 µM else rule not met

{"molecule": "COc1ccc(S(=O)(=O)N2CCN(C(=O)OC(C)(C)C)CC2C(=O)NO)cc1 (stereo unspecified)", "qualitative.label": "rule not met"}
{"molecule": "COc1ccc(S(=O)(=O)N2CCN(C(=O)[C@@H](O)C(C)C)CC2C(=O)NO)cc1 (stereo partly specified)", "qualitative.label": "rule not met"}
{"molecule": "COc1ccc(S(=O)(=O)N2CCN(C(=O)c3cccs3)CC2C(=O)NO)cc1 (stereo unspecified)", "qualitative.label": "rule met"}
{"molecule": "COc1ccc(S(=O)(=O)N2CCN(C(=O)C3CCCCC3)CC2C(=O)NO)cc1 (stereo unspecified)", "qualitative.label": "rule not met"}
{"molecule": "COc1ccc(S(=O)(=O)N2CCN(C(=O)c3ccco3)CC2C(=O)NO)cc1 (stereo unspecified)", "qualitative.label": "rule met"}
{"molecule": "COc1ccc(S(=O)(=O)N2CCN(c3nc(-c4ccccc4)cs3)CC2C(=O)NO)cc1 (stereo unspecified)", "qualitative.label": "rule not met"}
{"molecule": "COc1ccc(S(=O)(=O)N2CCN(C(C)=O)CC2C(=O)NO)cc1 (stereo unspecified)", "qualitative.label": "rule met"}
{"molecule": "COc1ccc(S(=O)(=O)N2CCN(S(=O)(=O)c3ccc(OC)cc3)C(C(=O)NO)C2)cc1 (stereo unspecified)", "qualitative.label": "rule not met"}
{"molecule": "COc1ccc(S(=O)(=O)N2CCN(C(=O)c3ccc(-c4ccccc4)cc3)CC2C(=O)NO)cc1 (stereo unspecified)", "qualitative.label": "rule met"}
{"molecule": "COc1ccc(S(=O)(=O)N2CCN(C(=O)N3CCCCCC3)CC2C(=O)NO)cc1 (stereo unspecified)", "qualitative.label": "rule not met"}

---

target: Stromelysin-1 (Homo sapiens); assay: In vitro inhibitory activity against matrix metalloprotease-3 (MMP-3)
Sequence (P08254 whole entry): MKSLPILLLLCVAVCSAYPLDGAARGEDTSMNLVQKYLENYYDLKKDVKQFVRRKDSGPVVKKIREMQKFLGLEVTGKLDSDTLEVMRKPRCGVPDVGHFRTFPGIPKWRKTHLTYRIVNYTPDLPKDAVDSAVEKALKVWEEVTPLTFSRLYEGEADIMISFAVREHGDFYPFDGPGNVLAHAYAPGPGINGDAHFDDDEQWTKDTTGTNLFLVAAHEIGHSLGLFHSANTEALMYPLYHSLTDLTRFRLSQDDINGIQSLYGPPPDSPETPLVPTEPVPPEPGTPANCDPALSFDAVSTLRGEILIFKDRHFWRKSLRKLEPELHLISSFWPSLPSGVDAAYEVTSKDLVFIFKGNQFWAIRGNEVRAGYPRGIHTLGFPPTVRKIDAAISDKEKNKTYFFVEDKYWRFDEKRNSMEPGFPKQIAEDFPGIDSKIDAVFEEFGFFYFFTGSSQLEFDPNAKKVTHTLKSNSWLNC
Entries and their IC50
assay.metric: IC50 (µM)

{"molecule": "COc1ccc(S(=O)(=O)N2CCN(C(=O)N3CCCCCC3)CC2C(=O)NO)cc1 (stereo not given)", "assay.metric": "IC50", "numeric.value": 0.054}
{"molecule": "COc1ccc(S(=O)(=O)N2CCN(C(C)=O)CC2C(=O)NO)cc1 (stereo not given)", "assay.metric": "IC50", "numeric.value": 0.018}
{"molecule": "COc1ccc(S(=O)(=O)N2CCN(C(=O)c3ccc(-c4ccccc4)cc3)CC2C(=O)NO)cc1 (stereo not given)", "assay.metric": "IC50", "numeric.value": 0.023}
{"molecule": "COc1ccc(S(=O)(=O)N2CCN(C(=O)Nc3cccc(OC)c3)CC2C(=O)NO)cc1 (stereo not given)", "assay.metric": "IC50", "numeric.value": 0.013}
{"molecule": "COc1ccc(S(=O)(=O)N2CCN(C(=S)NCc3ccccc3)CC2C(=O)NO)cc1 (stereo not given)", "assay.metric": "IC50", "numeric.value": 0.041}

---

Biological target: Interstitial collagenase (Homo sapiens, UniProt P03956)
Sequence (P03956 whole entry): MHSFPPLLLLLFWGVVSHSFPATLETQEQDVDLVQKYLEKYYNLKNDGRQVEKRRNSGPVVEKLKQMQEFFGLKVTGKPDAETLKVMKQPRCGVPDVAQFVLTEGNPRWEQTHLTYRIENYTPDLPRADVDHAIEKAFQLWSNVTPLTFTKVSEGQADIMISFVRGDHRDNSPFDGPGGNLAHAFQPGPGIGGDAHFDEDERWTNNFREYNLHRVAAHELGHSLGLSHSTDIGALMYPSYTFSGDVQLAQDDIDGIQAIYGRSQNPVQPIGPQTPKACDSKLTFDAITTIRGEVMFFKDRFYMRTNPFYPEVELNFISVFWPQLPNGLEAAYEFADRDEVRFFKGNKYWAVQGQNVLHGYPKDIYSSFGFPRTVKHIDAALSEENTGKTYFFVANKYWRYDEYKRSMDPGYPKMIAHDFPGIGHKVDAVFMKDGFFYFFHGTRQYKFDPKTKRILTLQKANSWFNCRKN
# label = MET if IC50 < 90 nM else NOT MET

{"molecule": "COc1ccc(S(=O)(=O)N2CCN(C(=O)c3cccnc3)CC2C(=O)NO)cc1 (stereo unspecified)", "target.system": "Interstitial collagenase (Homo sapiens, UniProt P03956)", "qualitative.label": "NOT MET"}
{"molecule": "COc1ccc(S(=O)(=O)N2CCN(C(=O)N3CCCCCC3)CC2C(=O)NO)cc1 (stereo unspecified)", "target.system": "Interstitial collagenase (Homo sapiens, UniProt P03956)", "qualitative.label": "NOT MET"}
{"molecule": "COc1ccc(S(=O)(=O)N2CCN(S(=O)(=O)c3c(C)noc3C)CC2C(=O)NO)cc1 (stereo unspecified)", "target.system": "Interstitial collagenase (Homo sapiens, UniProt P03956)", "qualitative.label": "MET"}
{"molecule": "COc1ccc(S(=O)(=O)N2CCN(S(=O)(=O)c3ccc(OC)cc3)C(C(=O)NO)C2)cc1 (stereo unspecified)", "target.system": "Interstitial collagenase (Homo sapiens, UniProt P03956)", "qualitative.label": "MET"}
{"molecule": "COc1ccc(S(=O)(=O)N2CCN(C(=O)c3ccno3)CC2C(=O)NO)cc1 (stereo unspecified)", "target.system": "Interstitial collagenase (Homo sapiens, UniProt P03956)", "qualitative.label": "MET"}
{"molecule": "COc1ccc(S(=O)(=O)N2CCN(C(=O)Nc3cccc(OC)c3)CC2C(=O)NO)cc1 (stereo unspecified)", "target.system": "Interstitial collagenase (Homo sapiens, UniProt P03956)", "qualitative.label": "MET"}
{"molecule": "CCCCCCN(C)C(=O)N1CCN(S(=O)(=O)c2ccc(Br)cc2)C(C(=O)NO)C1 (stereo unspecified)", "target.system": "Interstitial collagenase (Homo sapiens, UniProt P03956)", "qualitative.label": "MET"}
{"molecule": "COc1ccc(S(=O)(=O)N2CCN(C(=O)c3snnc3C)CC2C(=O)NO)cc1 (stereo unspecified)", "target.system": "Interstitial collagenase (Homo sapiens, UniProt P03956)", "qualitative.label": "NOT MET"}
{"molecule": "COc1ccc(S(=O)(=O)N2CCN(C(=O)c3ccco3)CC2C(=O)NO)cc1 (stereo unspecified)", "target.system": "Interstitial collagenase (Homo sapiens, UniProt P03956)", "qualitative.label": "MET"}
{"molecule": "COc1ccc(S(=O)(=O)N2CCN(Cc3ccccc3)CC2C(=O)NO)cc1 (stereo unspecified)", "target.system": "Interstitial collagenase (Homo sapiens, UniProt P03956)", "qualitative.label": "NOT MET"}
{"molecule": "COc1ccc(S(=O)(=O)N2CCN(C(=O)c3c(-c4ccccc4)noc3C)CC2C(=O)NO)cc1 (stereo unspecified)", "target.system": "Interstitial collagenase (Homo sapiens, UniProt P03956)", "qualitative.label": "NOT MET"}
